Origin of the recorded values: patent US20200024330A1

Answer each item with its documented Fold IC50 increase relative to wild-type.
Study system: HIV-1 JR-CSF Env S306A (HIV-1 JR-CSF) (UniProt P20871)
Assay remarks: cell-based or functional assay
Report only the number, with the unit fold understood.

Notebook: PGT-127 (antibody, V domains shown) VH: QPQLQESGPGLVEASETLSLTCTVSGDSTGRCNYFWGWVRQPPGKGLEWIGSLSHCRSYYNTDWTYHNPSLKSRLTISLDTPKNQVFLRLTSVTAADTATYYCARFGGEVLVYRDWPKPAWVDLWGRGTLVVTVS VL: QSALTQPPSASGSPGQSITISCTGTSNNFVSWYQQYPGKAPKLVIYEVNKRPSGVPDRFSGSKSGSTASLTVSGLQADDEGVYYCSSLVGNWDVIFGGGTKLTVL , Fold IC50 increase relative to wild-type read as 0.6

Noted for PGT-131 (antibody, V domains shown) VH: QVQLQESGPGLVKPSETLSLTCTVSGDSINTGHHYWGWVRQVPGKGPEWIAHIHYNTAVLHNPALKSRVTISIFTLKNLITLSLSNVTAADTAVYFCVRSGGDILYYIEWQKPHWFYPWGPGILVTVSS VL: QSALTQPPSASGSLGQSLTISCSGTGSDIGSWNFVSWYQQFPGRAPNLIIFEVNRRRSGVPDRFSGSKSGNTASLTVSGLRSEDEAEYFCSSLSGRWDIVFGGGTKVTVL : its Fold IC50 increase relative to wild-type reads 0.7
